molecular target: UniProt P28845; assay: Inhibition of cortisone-to-cortisol conversion in CHO-K1 cells over-expressing human 11b-HSD1 (HTRF cortisol assay); settings: CHO-K1 cells over-expressing human 11b-HSD1, 160 nM cortisone, 3 hours, 37° C.
Sequence (P28845 whole entry): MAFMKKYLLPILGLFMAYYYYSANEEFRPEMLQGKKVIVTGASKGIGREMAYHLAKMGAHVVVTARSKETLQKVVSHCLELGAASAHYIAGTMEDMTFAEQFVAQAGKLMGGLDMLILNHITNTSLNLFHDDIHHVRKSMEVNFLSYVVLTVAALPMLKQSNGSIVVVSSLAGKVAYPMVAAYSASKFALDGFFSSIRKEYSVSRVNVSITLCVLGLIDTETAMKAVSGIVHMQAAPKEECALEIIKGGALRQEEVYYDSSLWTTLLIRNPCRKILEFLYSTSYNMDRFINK
pIC50: −log10 of the molar value.
result-type: pIC50

Quick check: pIC50 on UniProt P28845, item "Cc1ccc(-c2ccc(C(=O)N[C@H]3C4CC5CC3C[C@](C(N)=O)(C5)C4)o2)cc1" ?
> 7.00

Quick check: pIC50 on UniProt P28845, item "Cn1c(C(=O)N[C@H]2C3CC4CC2C[C@](C(N)=O)(C4)C3)ccc1-c1cccc(Cl)c1" ?
> 7.00

Quick check: pIC50 on UniProt P28845, item "Cn1c(C(=O)N[C@H]2C3CC4CC2C[C@](C(N)=O)(C4)C3)ccc1-c1ccccc1" ?
> 7.00

Quick check: pIC50 on UniProt P28845, item CCC(C)Oc1cccc2ccc(C(=O)N[C@H]3C4CC5CC3C[C@](C(N)=O)(C5)C4)nc12 (stereo partly shown) ?
> 7.00
